Test: qHTS Assay to Find Inhibitors of Chronic Active B-Cell Receptor Signaling: Hit Validation in OCI-Ly3 Assay
Conditions: OCI-Ly3 IkB-luciferase reporter, Chroma-Glo luminescence, 4 h; series mostly up to 46.1 µM
The campaign covered roughly 1,200 compounds. About 10 (0.8%) were called active. Inconclusive results (about 4%) are left out. Calls come from the whole dose curve; as a rule, active = well fitted inhibition curve with a large enough effect; inconclusive = small, poorly fitted or top-dose-only effect; inactive = no such curve, though single readings can be large or run the other way. The sample holds actives, similar compounds and a random draw of the others, so the mix is not that of the screen.
Response enum: true for active, false for inactive

>  <compound>
COc1ccc(Nc2nc(N)nc(CCl)n2)cc1

>  <qualitative-label>
false

$$$$
>  <compound>
CCOc1ccc(C(=O)NC(=S)Nc2cccc(S(=O)(=O)NC3=NCCC3)c2)cc1

>  <qualitative-label>
false

$$$$
>  <compound>
Cc1ccc(NC(=O)c2ccco2)c([N+](=O)[O-])c1

>  <qualitative-label>
false

$$$$
>  <compound>
CCN1C(=O)C(O)(C2COC(C)(C)CC2=O)c2cc(Br)ccc21 (stereo not drawn)

>  <qualitative-label>
false

$$$$
>  <compound>
CNc1nc(-c2ccc(OC)cc2)c(-c2ccc(OC)cc2)s1

>  <qualitative-label>
false

$$$$
>  <compound>
COc1cccc(Nc2sc(C(=O)c3ccc(Cl)cc3)c(N)c2C(=O)NCc2ccc(C)cc2)c1

>  <qualitative-label>
false

$$$$
>  <compound>
CCc1ccccc1NC(=S)N=Nc1c(O)n(C)c2ccc(S(=O)(=O)N3CCOCC3)cc12

>  <qualitative-label>
false

$$$$
>  <compound>
Cc1cc(C)c2nc3sc(C(=O)N4CCOCC4)c(N)c3cc2c1

>  <qualitative-label>
false

$$$$
>  <compound>
CCOc1ccc(N(CC(=O)Nc2ccccc2OC)S(=O)(=O)c2ccccc2)cc1

>  <qualitative-label>
false

$$$$
>  <compound>
OC[C@H]1O[C@@H](n2cnc3c(NC4CCCC4)nc(Cl)nc32)[C@H](O)[C@@H]1O

>  <qualitative-label>
false

$$$$

Now, please, on to the next compound.
GET /call?item= "S=c1nc2ccccc2c2nc(-c3ccccc3Br)[nH]n12" returns the recorded outcome of this test.
false

====

Assay: qHTS Assay to Find Inhibitors of Chronic Active B-Cell Receptor Signaling: Hit Validation in OCI-Ly3 Assay
Details: OCI-Ly3 IkB-luciferase reporter, Chroma-Glo luminescence, 4 h; series mostly up to 46.1 µM
Among all 1,200 compounds or so, about 10 (0.8%) were called active. Not shown: some 4% with an inconclusive outcome. Calls follow the shape of the dose curve; as a rule, active = well fitted inhibition curve with a large enough effect; inconclusive = small, poorly fitted or top-dose-only effect; inactive = no such curve, though single readings can be large or run the other way. Many of the other results were omitted from the sample, so actives are more common in it than they were.
Valid outcomes are listed here; reply with one: active, inactive

>  <molecule>
CC1C(=O)N2CCCc3cc(NC(=O)c4ccccc4Br)cc1c32 (stereo unspecified)

>  <qualitative-label>
inactive

$$$$
>  <molecule>
CCCCC[C@H](O)/C=C/C1=C(CCCCCCC(=O)O)C(=O)CC1

>  <qualitative-label>
inactive

$$$$

What was the test verdict on "CCOc1ccc(Nc2cc(C)nc(-n3nc(C)cc3C)n2)cc1" ?
inactive

Same again, this time with "Cc1nnc(C)n1/N=C/c1cc2ccccc2nc1Cl"
inactive

Try "CCC1=Nc2cc(C(=O)NCc3ccco3)ccc2Sc2ccccc21" next.
inactive

Entry "COc1c(Br)cc(Br)cc1/C=N/NC(=O)c1cccnc1" please
inactive

For "CCOC(=O)C1=C(O)c2ccccc2C(=O)/C1=C\c1ccc(CC)cc1" then?
inactive

Next up: "O=C(/C=C/c1cccc(Cl)c1)c1nc2ccccc2[nH]1"
inactive

// repeat for "COc1ccc(CN2C[C@H]3CCCN3c3cc(Br)ccc3S2(=O)=O)cc1" and report
inactive

Another: "Cc1ccc2nc(NC(=O)c3ccccn3)sc2c1"
inactive

Request: COc1ccc(OC)c(C2CC(=O)c3c([nH]c(C(=O)OC(C)C)c3C)C2)c1 (stereo unspecified)
inactive

Queued: "Nc1ccc(C(=O)n2c3ccccc3c3ccccc32)cc1"
inactive

Again, but for "COc1ccc2c(c1)c(/C=N/Nc1nc3ccccc3[nH]1)c(C)n2C"
inactive

Next up: "COc1ccc(C(C)=O)cc1COC(=O)c1ccc(N)c([N+](=O)[O-])c1"
inactive

Param item: "O=C(N/N=C/c1cccs1)c1cc(-c2ccncc2)nc2ccccc12"
inactive

Input "COc1ccc2c(c1)sc1nc(-c3ccccc3)cn12"
inactive

====

Assay: qHTS Assay to Find Inhibitors of Chronic Active B-Cell Receptor Signaling: Hit Validation in OCI-Ly3 Assay
Details: OCI-Ly3 IkB-luciferase reporter, Chroma-Glo luminescence, 4 h; series mostly up to 46.1 µM
In all, about 1,200 compounds went through this assay and about 10 (0.8%) were called active. About 4% were inconclusive and are not listed. Calls come from the whole dose curve; as a rule, active = well fitted inhibition curve with a large enough effect; inconclusive = small, poorly fitted or top-dose-only effect; inactive = no such curve, though single readings can be large or run the other way. The sample as a whole holds a higher share of actives than the screen did.
Valid outcomes are listed here; reply with one: t = active, f = inactive

>  <molecule>
C[C@]12C=CC(=O)C=C1CC[C@@H]1[C@@H]2[C@@H](O)C[C@@]2(C)[C@H]1CC[C@]2(O)C(=O)COC(=O)CCC(=O)O

>  <qualitative-label>
f

$$$$

Dear colleague, could you share the recorded outcome for "O=C(/C=C/c1ccccc1Cl)c1cccnc1" when you have a moment?
f

Also Nc1ncnc2c1ncn2C1OC(C(=O)NC2CC2)C(O)C1O (stereo unspecified) ?
f

Now give it for "CCCCC[C@H](O)/C=C/[C@@H]1[C@@H](C/C=C\CCCC(=O)O)[C@@H](O)C[C@H]1O" too.
f

// query: "Cc1cc(C)c(C#N)c(SCc2c(F)cccc2[N+](=O)[O-])n1"
f

What do you get for "COc1cc2c(cc1OC)-c1cc(NC3CCCC3)nc(=O)n1CC2" ?
f

And then Cc1c(C(=O)OCC(C)C)[nH]c2c1C(=O)CC(c1cccs1)C2 (stereo unspecified) , what is it?
f

Another molecule to look at: "Oc1ccccc1/C=N/Nc1ccnc(SCc2ccccc2)n1"
f

Another molecule to look at: "CCO[C@H]1OC(C(=O)NCc2nc3ccccc3[nH]2)=C[C@@H](C2CC2)[C@@H]1CCCO"
f

Queued: "Oc1cccc(/C=N/Nc2ccc(Cl)nn2)c1O"
t

Param item: "CCN(CC)c1ccc2c(C)c(CO)c(=O)oc2c1"
f

====

Assay: qHTS Assay to Find Inhibitors of Chronic Active B-Cell Receptor Signaling: Hit Validation in OCI-Ly3 Assay
Settings: OCI-Ly3 IkB-luciferase reporter, Chroma-Glo luminescence, 4 h; series mostly up to 46.1 µM
In all, about 1,200 compounds went through this assay and about 10 (0.8%) were called active. Not shown: some 4% with an inconclusive outcome. Calls follow the shape of the dose curve; as a rule, active = well fitted inhibition curve with a large enough effect; inconclusive = small, poorly fitted or top-dose-only effect; inactive = no such curve, though single readings can be large or run the other way. The sample as a whole holds a higher share of actives than the screen did.
Mark one answer only. Choices: true = active, false = inactive

Solved cases below.
>  <compound>
O=C(O)c1ccc(CSc2nnc(-c3ccco3)o2)cc1

>  <qualitative-label>
false

$$$$
>  <compound>
CCn1c(O)c(N=NC(=S)NCC2CCCO2)c2ccccc21 (configuration not stated)

>  <qualitative-label>
true

$$$$

Returns: the outcome recorded for "Cc1ccc(Nc2nc(-c3c(C)nc4ncccn34)cs2)cc1" in this assay.
false

====

Assay: qHTS Assay to Find Inhibitors of Chronic Active B-Cell Receptor Signaling: Hit Validation in OCI-Ly3 Assay
Settings: OCI-Ly3 IkB-luciferase reporter, Chroma-Glo luminescence, 4 h; series mostly up to 46.1 µM
Out of some 1,200 compounds screened, about 10 (0.8%) were called active. Not shown: some 4% with an inconclusive outcome. Calls follow the shape of the dose curve; as a rule, active = well fitted inhibition curve with a large enough effect; inconclusive = small, poorly fitted or top-dose-only effect; inactive = no such curve, though single readings can be large or run the other way. For the sample, actives were picked, then their nearest neighbours and some compounds at random.
API: response.call in YES = active, NO = inactive

>  <compound>
CCOC(=O)c1ccc(NC(=O)Nc2ccon2)cc1

>  <qualitative-label>
NO

$$$$
>  <compound>
Cc1[nH]n(C(N)=S)c(=O)c1N=Nc1cccc(Cl)c1

>  <qualitative-label>
YES

$$$$
>  <compound>
COc1ccc(-c2c(C)nn3c(N)c(C#N)cnc23)cc1OC

>  <qualitative-label>
NO

$$$$
>  <compound>
Cc1ccc2nc(SCC(=O)Nc3cc(C(F)(F)F)ccc3N3CCOCC3)[nH]c2c1

>  <qualitative-label>
NO

$$$$

Just curious, what result did COc1ccc(NC(=O)C(=O)NCC2CCCN2S(=O)(=O)c2ccc(C)cc2)cc1 (stereo not given) get here?
NO

Moving on to COc1ccc(C(=O)/C=C/c2ccc(O)cc2)c2c1CC(O)C(C)(C)O2 (stereo not given)
NO

Follow-up entry: "COc1ccc(CCNc2oc(-c3ccc(OC)c(OC)c3)nc2P(=O)(OC)OC)cc1OC"
NO

Request: "Cc1cccc(OCCN2C(=O)C(=O)c3cc(C)ccc32)c1"
NO

Now try CCOc1c(OC)cccc1C1CC(=O)Nc2cc(OC)c(OC)cc21 (stereo not given) .
NO

====

Assay: qHTS Assay to Find Inhibitors of Chronic Active B-Cell Receptor Signaling: Hit Validation in OCI-Ly3 Assay
Conditions: OCI-Ly3 IkB-luciferase reporter, Chroma-Glo luminescence, 4 h; series mostly up to 46.1 µM
Out of some 1,200 compounds screened, about 10 (0.8%) were called active. Roughly 4% stayed inconclusive and do not appear here. Calls follow the shape of the dose curve; as a rule, active = well fitted inhibition curve with a large enough effect; inconclusive = small, poorly fitted or top-dose-only effect; inactive = no such curve, though single readings can be large or run the other way. For the sample, actives were picked, then their nearest neighbours and some compounds at random.
Your response should consist of one outcome taken from active, inactive

The examples below pair each entry with its known result.
>  <compound>
COC(=O)c1cccc(-n2sc3ccccc3c2=O)c1

>  <qualitative-label>
inactive

$$$$
>  <compound>
COc1cc2c(cc1OC)-c1cc(NC3CCCCC3)nc(=O)n1CC2

>  <qualitative-label>
inactive

$$$$
>  <compound>
CCOc1ccc(C(=O)c2cc([N+](=O)[O-])ccc2N2CCOCC2)cc1

>  <qualitative-label>
inactive

$$$$

Record request — test call for "c1ccc(-c2cc(-c3nnc4n3N=C(c3ccc5ccccc5c3)CS4)[nH]n2)cc1"
inactive

Now consider "CC(=O)Nc1cc(N=Cc2ccc(O)cc2O)c(Cl)cc1Cl" and answer again.
active

Now give it for "Cc1cc(C)c(S(=O)(=O)Nc2ccc3c4c(cccc24)CC3)c(C)c1" too.
inactive

Next entry: "COc1ccccc1-n1cnc2cc(NCc3cccs3)ccc21"
inactive

Field entry: COc1cc2c(cc1OC)C(c1cc3cc(OC)c(OC)cc3[nH]c1=O)N(C(=O)C1CC1)CC2 (stereo unspecified)
inactive

What do you have for "Cc1cc(Cl)n2c(nc3cc(F)c(F)cc32)c1C#N" ?
inactive

Proceed to "Fc1ccc(/C=N/NC2=Nc3cccc4cccc2c34)cc1"
inactive

What would you report for "Cc1ccc(/C=C/C(=O)c2nc3ccccc3[nH]2)cc1" ?
inactive
